The origin of these recorded values is patent US9353082B2.

- measured.target: FAAH (Mus musculus, UniProt O08914)
- Construct: A fragment of liver, left lung lobe and brain without cerebellum were removed; from tissue; host or cells: male NMRI mice; brain (without cerebellum) and liver homogenates
- Sequence (O08914 whole entry, the tested form may be a part): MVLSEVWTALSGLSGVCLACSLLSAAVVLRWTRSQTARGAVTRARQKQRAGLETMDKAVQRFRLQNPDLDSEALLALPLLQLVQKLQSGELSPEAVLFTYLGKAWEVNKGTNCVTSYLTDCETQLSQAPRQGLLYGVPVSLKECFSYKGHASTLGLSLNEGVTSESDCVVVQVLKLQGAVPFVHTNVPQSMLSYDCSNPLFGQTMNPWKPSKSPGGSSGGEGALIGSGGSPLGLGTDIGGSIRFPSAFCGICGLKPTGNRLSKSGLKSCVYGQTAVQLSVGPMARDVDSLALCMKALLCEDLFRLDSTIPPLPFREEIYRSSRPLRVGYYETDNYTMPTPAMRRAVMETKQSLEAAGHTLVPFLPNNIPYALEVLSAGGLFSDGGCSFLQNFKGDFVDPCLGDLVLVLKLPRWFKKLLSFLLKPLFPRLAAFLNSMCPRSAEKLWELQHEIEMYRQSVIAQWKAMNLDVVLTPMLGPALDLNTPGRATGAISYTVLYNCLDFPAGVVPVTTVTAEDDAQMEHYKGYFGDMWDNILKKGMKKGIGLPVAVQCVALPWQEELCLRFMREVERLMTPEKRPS
- run.description: In vivo FAAH inhibition after oral dosing, remaining activity in brain homogenate (BRh, central nervous tissue)
- Set-up: species or system NMRI mice
- test.conditions: brain homogenate, 3 mg/kg, 8 h
Catalogue of molecules with associated In Vivo BRh 3 mg/kg 8 h, remaining FAAH activity

Ask: If you can, please state the reported In Vivo BRh 3 mg/kg 8 h, remaining FAAH activity value of O=C(N1CCN(c2ccccc2)CC1)n1cnc(Cc2ccccc2)n1 .
Result: 90.6 % of control

Ask: Query: In Vivo BRh 3 mg/kg 8 h, remaining FAAH activity; subject: CN(C(=O)n1cnc(-c2cccc(-c3cccc(C(N)=O)c3)c2)c1)C1CCCCC1
Result: 67.9 % of control

Ask: Sample CN(Cc1ccccc1)C(=O)n1cnc(-c2ccc(F)cc2)c1 — what was its In Vivo BRh 3 mg/kg 8 h, remaining FAAH activity?
Result: 5.6 % of control

Ask: Need In Vivo BRh 3 mg/kg 8 h, remaining FAAH activity, item CN(C(=O)n1cnc(-c2ccc(F)c(F)c2)c1)C1CCCCC1
Result: 19 % of control

Ask: I would be grateful if you could share the reported In Vivo BRh 3 mg/kg 8 h, remaining FAAH activity for CC1(C)COCN1C(=O)n1cnc(-c2cccc(-c3cccc(C(N)=O)c3)c2)c1 .
Result: 82.8 % of control

Ask: Form field: reported In Vivo BRh 3 mg/kg 8 h, remaining FAAH activity of COc1ccc(OCCC2CCN(C(=O)n3nnc4ccccc43)CC2)cc1
Result: 68.2 % of control

Ask: Recorded In Vivo BRh 3 mg/kg 8 h, remaining FAAH activity of CC1(C)COCN1C(=O)n1cnc(-c2ccc(F)cc2F)n1 , please.
Result: 92.4 % of control

Ask: Consider the molecule shown here: CN(Cc1ccccc1)C(=O)n1cnc(-c2ccc(Oc3ccc(C(N)=O)cc3)cc2)n1 What is its recorded In Vivo BRh 3 mg/kg 8 h, remaining FAAH activity?
Result: 116.7 % of control

Ask: Give its In Vivo BRh 3 mg/kg 8 h, remaining FAAH activity value. Item: CCC1CN(C(=O)n2cnc(-c3ccc(Cl)cc3)c2)C(C)(C)O1 (stereo not shown)
Result: 79.4 % of control

Ask: Form field: reported In Vivo BRh 3 mg/kg 8 h, remaining FAAH activity of O=C(N1CCC2(CC1)OCCO2)n1nnc2ccccc21
Result: 42.6 % of control

----------
- measured.target: FAAH (Rattus norvegicus)
- Construct: Frozen brains (without cerebellum) from Wistar rats were used; from tissue; host or cells: Wistar rat brain (without cerebellum), washed membrane pellets
- Sequence (P97612 1-579): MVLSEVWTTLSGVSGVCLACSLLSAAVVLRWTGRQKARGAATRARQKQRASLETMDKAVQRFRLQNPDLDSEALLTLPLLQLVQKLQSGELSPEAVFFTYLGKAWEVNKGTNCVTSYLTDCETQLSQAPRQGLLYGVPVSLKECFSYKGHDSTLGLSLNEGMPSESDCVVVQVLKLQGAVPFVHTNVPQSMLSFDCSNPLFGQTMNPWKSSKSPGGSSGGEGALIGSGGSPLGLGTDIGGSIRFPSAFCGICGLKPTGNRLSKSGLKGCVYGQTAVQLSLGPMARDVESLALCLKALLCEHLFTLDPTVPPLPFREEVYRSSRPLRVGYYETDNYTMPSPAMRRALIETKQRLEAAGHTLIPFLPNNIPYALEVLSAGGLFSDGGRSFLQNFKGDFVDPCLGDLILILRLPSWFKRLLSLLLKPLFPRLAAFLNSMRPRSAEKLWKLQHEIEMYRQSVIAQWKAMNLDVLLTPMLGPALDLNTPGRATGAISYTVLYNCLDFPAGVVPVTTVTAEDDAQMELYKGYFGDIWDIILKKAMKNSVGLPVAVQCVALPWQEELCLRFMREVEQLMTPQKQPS
- run.description: In vitro FAAH activity in rat brain membranes, 3H-AEA substrate, % of control
- Assay type: biochemical, Wistar rats
- test.conditions: 100 nM test compound, low value = strong inhibitor
# key: entry, value: In Vitro FAAH activity, 100 nM

molecule=COc1cccc(CN(C)C(=O)n2nnc3ccccc32)c1 test_readout="In Vitro FAAH activity, 100 nM" result="0 % of control"

Ask: If you can, please state the reported In Vitro FAAH activity, 100 nM value of O=C(N1CCN(c2ccc(F)cc2)CC1)n1cnc(-c2ccc(Cl)cc2)c1 .
Result: 1.1 % of control

Ask: Using the record for CC1OCC(C)(C)N1C(=O)n1cnc(-c2ccc(Cl)cc2)c1 (stereo not drawn) , report its In Vitro FAAH activity, 100 nM.
Result: 76.2 % of control

Ask: What value of In Vitro FAAH activity, 100 nM has been recorded for this entry: C[C@@H](c1ccccc1)N(C)C(=O)n1nnc2ccccc21
Result: 15.7 % of control

Ask: Any idea what its In Vitro FAAH activity, 100 nM is? The molecule is O=C(N1CCOCC1)n1ccc2cc(F)ccc21
Result: 104.3 % of control

Ask: Return reported In Vitro FAAH activity, 100 nM; argument: CN(C(=O)n1nnc2ccccc21)c1ccccn1
Result: 62.5 % of control

Ask: Need In Vitro FAAH activity, 100 nM of CN(Cc1ccccc1)C(=O)n1cnc(-c2cccc3ccccc23)n1 , thanks.
Result: 21 % of control

Ask: Consider the molecule shown here: CN(C(=O)n1cnc(-c2ccc(O)cc2)c1)c1ccc(F)cc1 What is its recorded In Vitro FAAH activity, 100 nM?
Result: 91 % of control

Ask: In Vitro FAAH activity, 100 nM lookup needed for O=C(N1CCN(c2ccccc2)CC1)n1cnc(-c2ccccc2)c1 , thanks.
Result: 0.5 % of control
